Attribution: BigSolDB 2.1

condition info: in methanol, 318.15 K
property: solubility (mole fraction)

Incoming: Tell us which solubility (mole fraction) value is on record for O=[N+]([O-])c1cc([N+](=O)[O-])c(Cl)cc1Cl
Outgoing: 0.0197
